These measurements were taken from the EternaBench riboswitch data.

The following sequences are listed with their measured apparent Kd values.
tested on: MS2 coat protein; assay: apparent Kd, MS2 coat protein; higher = weaker binding; RNA-MaP array; FMN 200 µM where present; details: ligand present: flavin mononucleotide; designed as: ON switch for flavin mononucleotide
Observation Type: apparent Kd (nM)

[[record]]
seq_text = "GGCCGUUUACAUGAGGAUCACCCAUGUCCGGAUUGUUGGCCCAGAAGGCAUUACGAAUUCGGCUAUGAGGAUAUGGGUUACAAG"
measurement = 119

[[record]]
seq_text = "AAUUAAUUAAUACAUGAGGAUCACCCAUGUAAUUAUUAGAUCAAGGAUAUCAGCUCGAUUAGAGCUGAGAAGGUGAUCACAUGU"
measurement = 102

[[record]]
seq_text = "UUGGACGUCGUAGGAUAUGUAGGAUAGUCCUACAUGAGGAUCACCCAUGUUGACAUGGAAGAAGGACAGAAGGACGAUGUCCAU"
measurement = 35.4

[[record]]
seq_text = "UCGAUCGUAUGAGGAUAUGGUACACAAAGUGUACCAGAAGGCAUGUCAAUAGACAUGAGGAUCACCCAUGUAUUAUCGAUCGAA"
measurement = 51.7

[[record]]
seq_text = "UGGUACAUGGGAGGAUAUCCUCAAGAGACAUGAGGAUCACCCAUGUAUUAUAUGCCUCAUGGCAUGGAGAAGGCCCAUGUACCU"
measurement = 153

[[record]]
seq_text = "UAUAACUAACAGAAGGGUAUUUGGGAUCAUUAUUAGGAGGAAAUACUAUACAGGAUAUGUAAUACAUGAGGAUCACCCAUGUUC"
measurement = 15.7

[[record]]
seq_text = "UUUUAUGUCAAAGGAUAUAUAAAUAAAUUUAUAACAUGAGGAUCACCCAUGUACUUUAGUAUGAGGUAGAAGGUUGAUAAGAGA"
measurement = 23.3

[[record]]
seq_text = "UGCGUACAAGCAAACAUGAGGAUCACCCAUGUGGUCUUAUGCGAGGAUAUCGGGAAGGAGGAUUCCGAGAAGGUGCGGUGAGCC"
measurement = 26.5

[[record]]
seq_text = "CGUGAACAUGAGGAUCACCCAUGUGAAAAACGUAGAGGAUAUGUCACAUGAGUGUAAAAGACAGAAGGCUAUCGUG"
measurement = 27.1

[[record]]
seq_text = "AAAAUCUAUUGAGGAUAUUCAUACACUACGUACGGAGAAGGCAAACAAUCAUGAGGACAUGAGGAUCACCCAUGUUGUGACCAU"
measurement = 10.6


----------
The following sequences are listed with their measured apparent Kd values.
system: MS2 coat protein; assay: apparent Kd, MS2 coat protein; higher = weaker binding; RNA-MaP array; conditions: ligand present: flavin mononucleotide; designed as: ON switch for flavin mononucleotide
Observation Type: apparent Kd (nM)

[[record]]
seq_text = "ACACCACAGCAGAAGGGUACAUUCUCCACGCGUACAGGAUAUGCGGACUCGGCGUCUCUGACAUGAGGAUCACCCAUGUUUUCU"
measurement = 29.1

[[record]]
seq_text = "AAAAUACAUGAGGAUCACCCAUGUGCUUUCUAUUCAGGAUAUGGUGGUACAGUGGACAUACCAGAAGGGAAUGAAA"
measurement = 8.34

[[record]]
seq_text = "ACUAGUAGGCAAGGAUAUGGCCUCAUAAGAUAGCCAGAAGGUGCUACGGACAUGAGGAUCACCCAUGUGCAGCUCGUACGGUGG"
measurement = 155

[[record]]
seq_text = "CACUACUCCCAAGGAUAUUACGCUACAAAUCUUACUAACAUGAGGAUCACCCAUGUUCGGAACGGAAAGAAGGUGGGCUUAUAC"
measurement = 8.22

[[record]]
seq_text = "UCACAGUCCCAGAAGGCCUUGUCAGAUUCAUAAGGAGGAUAUGGAUUACAUGAGGAUCACCCAUGUGAAUACUUACAGAGCAAC"
measurement = 15.4

[[record]]
seq_text = "GCGAUAGCUGUCAAGGAUAUGAGGCUGACCACAUGAGGAUCACCCAUGUUUACAACAAAAUAGAUUCAGAAGGUGACAACAAGUAG"
measurement = 18.1

[[record]]
seq_text = "AAAUUACGUAAGAAGGCCAUAGGAACUGAAGCAAGCUCGACGACACAUGAGGAUCACCCAUGUCUGGAGGAUAUUAUGAUAUCU"
measurement = 9.64

[[record]]
seq_text = "AGAUAAUCUUGGGAUUUCGUACAUGAGGAUCACCCAUGUCCAGAGGAUAUGCAUAGACAGGCAUCGCAGAAGGCUGGUGAACAG"
measurement = 27.6

[[record]]
seq_text = "CCAACAACGGAGAAGGCGUGACUGGUUUCACAGACAGUGUGGCACAUGAGGAUCACCCAUGUGAACGAGGAUAUCCGUGUGCGA"
measurement = 7.4


----------
tested on: MS2 coat protein; assay: apparent Kd, MS2 coat protein; higher = weaker binding; RNA-MaP array; FMN 200 µM where present; conditions: designed as: ON switch for flavin mononucleotide; no ligand
Observation Type: apparent Kd (nM)

[[record]]
seq_text = "CGCUACGUUUCGUAGCAGUGUCAUCGAGAAGGCCCUGACAUGAGGAUCACCCAUGUUCCUGAAAAGGAGGAUAUCGAUGAUACA"
observation_type = "apparent Kd"
uom = "nM"
measurement = 8.86

[[record]]
seq_text = "GGUUAAUAUCGAGGAUAUGUCUAGACACAUGAGGAUCACCCAUGUAUGUGUAUAGAAGGCGAUAUUAACAGCAUGUUACAUGCG"
observation_type = "apparent Kd"
uom = "nM"
measurement = 38.8

[[record]]
seq_text = "UGGUACAUGGGAGGAUAUCCUCAAGAGACAUGAGGAUCACCCAUGUAUUAUAUGCCUCAUGGCAUGGAGAAGGCCCAUGUACCU"
observation_type = "apparent Kd"
uom = "nM"
measurement = 179

[[record]]
seq_text = "GUAGCAUACCGAGGAUAUUCUGGGCUUAAAUAAACAUGAGGAUCACCCAUGUGGCGAAAGCCUAGGGAGAAGGCGGAAUGCUAC"
observation_type = "apparent Kd"
uom = "nM"
measurement = 13.7

[[record]]
seq_text = "UCCUACAUGGGAGGAUAUGGGAUGAUAACAUGAGGAUCACCCAUGUUAAAGAUGCCGAGAGGCAACUAGAAGGCCCAUGUAGGU"
observation_type = "apparent Kd"
uom = "nM"
measurement = 434

[[record]]
seq_text = "ACAGAGGCUGACAUGAGGAUCACCCAUGUUAGAUUGUUAUGUCAGGAUAUUAUCUGGCAACCAGAUAAGAAGGGACCCUCUGUG"
observation_type = "apparent Kd"
uom = "nM"
measurement = 31.2

[[record]]
seq_text = "AGAUGGUAUAUAGGAUAUCAUGUGCAAACAUGAGGAUCACCCAUGUAGAAACGUCAGUUUAAUAAUGAGAAGGAUAUACCAUCU"
observation_type = "apparent Kd"
uom = "nM"
measurement = 31.9

[[record]]
seq_text = "GUUGCUAUCGGAGGAUAUUCAUACCGGAAACGGACAUGAGGAUCACCCAUGUGGCGAAAGCCAUGGGAGAAGGCCGAUAGCAAC"
observation_type = "apparent Kd"
uom = "nM"
measurement = 1350

[[record]]
seq_text = "GGCCGUUUACAUGAGGAUCACCCAUGUCCGGAUUGUUGGCCCAGAAGGCAUUACGAAUUCGGCUAUGAGGAUAUGGGUUACAAG"
observation_type = "apparent Kd"
uom = "nM"
measurement = 215

[[record]]
seq_text = "UGCACAUGAGGAUCACCCAUGUAUUGUUCGGUUAAUAGAAGUGAGGAUAUGCUUAAAAUAAGGUAGCAGAAGGCACUGGGUUCA"
observation_type = "apparent Kd"
uom = "nM"
measurement = 27.8

[[record]]
seq_text = "UGGAACAUGGGAGGAUAUGGGAUGAUAACAUGAGGAUCACCCAUGUUAAAGAUGCCGAGAGGCAACUAGAAGGCCCAUGUUCCU"
observation_type = "apparent Kd"
uom = "nM"
measurement = 368

[[record]]
seq_text = "AAACACGGACAUGAGGAUCACCCAUGUGGCGAAAGCCUUGGGAGAAGGUAUUAUGCAAAGCAUUAUAAGGAUAUUCAUACCGUG"
observation_type = "apparent Kd"
uom = "nM"
measurement = 821

[[record]]
seq_text = "UUCAAGUUGCGAGGAUAUCGUGUUAACAUGAGGAUCACCCAUGUAAAGGUUUAUUAAUUAAUCUUCGAGAAGGCGCUUAAUGUA"
observation_type = "apparent Kd"
uom = "nM"
measurement = 29.3

[[record]]
seq_text = "UCGAUCGUAUGAGGAUAUGGUACACAAAGUGUACCAGAAGGCAUGUCAAUAGACAUGAGGAUCACCCAUGUAUUAUCGAUCGAA"
observation_type = "apparent Kd"
uom = "nM"
measurement = 361

[[record]]
seq_text = "GUCUUAUUACAGAAGGUGUUUUACAUGAGGAUCACCCAUGUUUUAUUGUUUAAAUUUGAUAUUUACAAGGAUAUGUACUAAUCU"
observation_type = "apparent Kd"
uom = "nM"
measurement = 25.1

[[record]]
seq_text = "AAAAUCUAUUGAGGAUAUUCAUACACUACGUACGGAGAAGGCAAACAAUCAUGAGGACAUGAGGAUCACCCAUGUUGUGACCAU"
observation_type = "apparent Kd"
uom = "nM"
measurement = 17.6

[[record]]
seq_text = "UCAACCAGCGCCAGUUGAACAUGAGGAUCACCCAUGUACUCCAGAAGGCCGCCCAAGAACGGAGUGGAGGAUAUGGAGGUUCUC"
observation_type = "apparent Kd"
uom = "nM"
measurement = 28.5

